- subject of test: T1, Human EphA2 (Ecto), C-terminal polyHis (Human, UniProt P29317 24-537)
- T1 construct: extracellular domain; also called EPH receptor A2; ephrin type-A receptor 2
- protocol details: fluorescence polarisation competition; competitor fluorescent Compound 1
pKi: −log10 of the molar value. Starred links: 1 amine or outer side, 2 acyl side, 3 side chain; linkers in the order of their positions; H or OH if unused. Positions of bridges follow the written chain, without caps; N, C: chain ends. No end group written: not given here. TBMB = c1c(C[*:1])cc(C[*:3])cc1C[*:2]
A collection of binders and their measured pKi
reported metric: pKi

ACVPQGIWCALQFEPCA (linker 2-9-16 via TBMB (inferred), also called Compound 63) [Bicycle Compound Number 63 (TBMB scaffold)]
6.84
ACRNIPTMCPFGPVWCA (linker 2-9-16 via TBMB, also called Compound 32) [Bicycle Compound Number 32 (TBMB scaffold)]
7.08
